These entries and their values trace back to patent US20090298765A1.

Below, each entry is listed with its recorded Ca ion level-increasing activity (FLIPR).
Target: human OT7T175 (metastin receptor) (human, UniProt Q969F8 1-398)
Sequence (Q969F8 whole entry L364H): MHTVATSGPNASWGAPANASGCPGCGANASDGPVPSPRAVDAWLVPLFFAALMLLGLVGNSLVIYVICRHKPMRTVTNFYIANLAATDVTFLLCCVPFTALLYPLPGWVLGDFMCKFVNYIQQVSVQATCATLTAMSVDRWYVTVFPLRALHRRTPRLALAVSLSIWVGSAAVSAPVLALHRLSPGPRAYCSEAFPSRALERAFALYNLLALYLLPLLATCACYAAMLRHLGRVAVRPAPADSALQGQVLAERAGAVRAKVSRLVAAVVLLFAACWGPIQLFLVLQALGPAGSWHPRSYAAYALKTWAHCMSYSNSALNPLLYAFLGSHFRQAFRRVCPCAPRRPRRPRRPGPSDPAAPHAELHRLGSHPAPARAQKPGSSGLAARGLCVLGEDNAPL
Experiment: cell-based or functional assay
Non-standard residues stand in square brackets, D forms with d. No end group written: not given here. *: point of attachment. Diphenylacetyl = O=C(C(c1ccccc1)c1ccccc1)*; indole‑3‑carbonyl = O=C(c1c[nH]c2ccccc12)*; Arg(Me) = CNC(=N)NCCC[C@H](N)C(=O)O; Hydrocinnamoyl = O=C(CCc1ccccc1)*; d3Pal = N[C@H](Cc1cccnc1)C(=O)O; d4Pal = N[C@H](Cc1ccncc1)C(=O)O; Cha = N[C@@H](CC1CCCCC1)C(=O)O; azaGly = NNC(=O)O

Worked cases, answers included:
binder	endpointLabel	measured
Hydrocinnamoyl-NSF[azaGly]L[Arg(Me)]F-NH2 (also called Compound No. 269) [des(1-3)-3-Phenylpropionyl-[AzaGly7,Arg(Me)9]MS10]	Ca ion level-increasing activity (FLIPR)	3 x Metastin (1-54)
[d3Pal][dY][Cha]NSF[azaGly]L[Arg(Me)]F-NH2 (N-terminus assumed; SMILES CNC(=N)NCCC[C@H](NC(=O)[C@H](CC(C)C)NC(=O)NNC(=O)[C@H](Cc1ccccc1)NC(=O)[C@H](CO)NC(=O)[C@H](CC(N)=O)NC(=O)[C@H](CC1CCCCC1)NC(=O)[C@@H](Cc1ccc(O)cc1)NC(=O)[C@H](N)Cc1cccnc1)C(=O)N[C@@H](Cc1ccccc1)C(N)=O, also called Compound No. 291) [[D-Pya(3)1,D-Tyr2,Cha3,AzaGly7,Arg(Me)9]MS10]	Ca ion level-increasing activity (FLIPR)	2 x Metastin (1-54)
{indole‑3‑carbonyl}-NSF[azaGly]L[Arg(Me)]F-NH2 (also called Compound No. 265) [des(1-3)-Indole-3-carbonyl-[AzaGly7,Arg(Me)9]MS10]	Ca ion level-increasing activity (FLIPR)	3 x Metastin (1-54)
[dN][Cha]NSF[azaGly]L[Arg(Me)]F-NH2 [des(1)-[D-Asn2,Cha3,AzaGly7,Arg(Me)9]MS10]	Ca ion level-increasing activity (FLIPR)	1 x Metastin (1-54)

[ask] For the binder [dY][d4Pal]NSF[azaGly]L[Arg(Me)]F-NH2 (N-terminus assumed; SMILES CNC(=N)NCCC[C@H](NC(=O)[C@H](CC(C)C)NC(=O)NNC(=O)[C@H](Cc1ccccc1)NC(=O)[C@H](CO)NC(=O)[C@H](CC(N)=O)NC(=O)[C@@H](Cc1ccncc1)NC(=O)[C@H](N)Cc1ccc(O)cc1)C(=O)N[C@@H](Cc1ccccc1)C(N)=O, also called Compound No. 305; KiSS1-305) [des(1)-[D-Tyr2,D-Pya(4)3,AzaGly7,Arg(Me)9]MS10] , give its measured Ca ion level-increasing activity (FLIPR) value.
[reply] 5 x Metastin (1-54)

[ask] Specify reported Ca ion level-increasing activity (FLIPR) for the binder shown: [dY]N[d4Pal]NSF[azaGly]L[Arg(Me)]F-NH2 (also called Compound No. 302) [[D-Tyr1,D-Pya(4)3,AzaGly7,Arg(Me)9]MS10]
[reply] 2 x Metastin (1-54)

[ask] Supply measured Ca ion level-increasing activity (FLIPR) of [dY][dS]WNSF[azaGly]L[Arg(Me)]F-NH2 (N-terminus assumed; SMILES CNC(=N)NCCC[C@H](NC(=O)[C@H](CC(C)C)NC(=O)NNC(=O)[C@H](Cc1ccccc1)NC(=O)[C@H](CO)NC(=O)[C@H](CC(N)=O)NC(=O)[C@H](Cc1c[nH]c2ccccc12)NC(=O)[C@@H](CO)NC(=O)[C@H](N)Cc1ccc(O)cc1)C(=O)N[C@@H](Cc1ccccc1)C(N)=O, also called Compound No. 287) [[D-Tyr1,D-Ser2,AzaGly7,Arg(Me)9]MS10] in your reply.
[reply] 2 x Metastin (1-54)

[ask] Identify measured Ca ion level-increasing activity (FLIPR) associated with Diphenylacetyl-NSF[azaGly]L[Arg(Me)]F-NH2 (SMILES CNC(=N)NCCC[C@H](NC(=O)[C@H](CC(C)C)NC(=O)NNC(=O)[C@H](Cc1ccccc1)NC(=O)[C@H](CO)NC(=O)[C@H](CC(N)=O)NC(=O)C(c1ccccc1)c1ccccc1)C(=O)N[C@@H](Cc1ccccc1)C(N)=O, also called Compound No. 268) [des(1-3)-Diphenylacetyl-[AzaGly7,Arg(Me)9]MS10]
[reply] 1 x Metastin (1-54)
